Data provenance: the supplement of paper PMC13380429

# Tested on: Vero E6 infected with SARS-CoV-2
# Assay Notes: inhibition of SARS-CoV-2 cytopathic effect; higher = more antiviral protection, active = above 15
# Condition: 1 nM; 48 h
I'd be grateful if you could share measured inhibition of SARS-CoV-2 cytopathic effect for these entries.
Answers are plain numbers, in %.

Please review the entries below; each comes with its answer.
1) COC(=O)[C@@H](N)CCCNC(=N)N[N+](=O)[O-] :: 0.94
2) CN1C(=O)C(F)=C[C@]2(C)[C@H]3CC[C@]4(C)[C@@H](C(=O)NCc5nc6cccnc6[nH]5)CC[C@H]4[C@@H]3CC[C@@H]12 :: 0.34
3) O=C(C[S+]([O-])Cc1ccco1)NC/C=C\COc1cc(CN2CCCCC2)ccn1 (stereo not given) [lafutidine] :: -0.4
4) Nc1nc(-c2ccc(Cl)c(Cl)c2)c(-c2ccncc2)s1 :: -1.24
5) C/C(=N\NC(=O)[C@@H]1C(=O)NC[C@H]1c1ccccc1)c1cccc(Br)c1 :: -1.05

// batch mode: one inhibition of SARS-CoV-2 cytopathic effect value per listed entry
1. CSc1ccc([C@H]2CN3CCC[C@H]3c3ccccc32)cc1 (racemic)
2. O=C(NCc1ccccc1)OCCO [buramate]

A)
3.1
-3.11

Consider the following items and state reported inhibition of SARS-CoV-2 cytopathic effect for each.
1. CCCOc1ccc2[nH]cc(C3=CCNCC3)c2n1
2. O=C1c2ccccc2C(=O)C1c1ccc(Br)cc1 [bromindione]
3. O=C(/C=C/c1ccc2ccc(C(F)(F)F)cc2n1)c1ccncc1

A)
1: 2.78; 2: -0.87; 3: 1.93

Kindly give each listed record's inhibition of SARS-CoV-2 cytopathic effect.
1. CC(C)(Sc1ccncc1-c1ccc(C#N)c2ccccc12)C(=O)O [verinurad]
2. CO[C@H]1/C=C/O[C@@]2(C)Oc3c(C)c(O)c4c(O)c(c5c(nc6cc(C)ccn65)c4c3C2=O)NC(=O)/C(C)=C\C=C\[C@H](C)[C@H](O)[C@@H](C)[C@@H](O)[C@@H](C)[C@H](OC(C)=O)[C@@H]1C [rifaximin]
3. O=c1c(O)c(-c2ccc(O)cc2)oc2cc(O)cc(O)c12 [kaempferol]

A)
1: -0.56; 2: 0.71; 3: -3.6
